test system: MCF7 breast; test: NCI-60 one-dose screen, 48 h (100 = growth as untreated, 0 = no growth, -100 = all killed); details: 10 µM unless noted
Compounds without any hit were thinned out: in the full panel of roughly 83,000, 20% have a hit.
Each entry below carries its recorded growth.
Numeric answer only, unit % assumed.

See these solved cases before continuing.
>>> experimental_result("Oc1ccc(CCCCCCc2ccc(O)cc2)cc1")
35.9
>>> experimental_result("CC(C)c1[nH]ncc1-c1nc2ccc3[nH]ncc3c2c2c1CCCC2")
20.4
>>> experimental_result("CCOC(=O)c1ccccc1SC(C[N+](=O)[O-])c1ccccc1 (centres undefined)")
1.05
>>> experimental_result("COC(=O)C1(C)COP(=O)(NC23CC4CC(CC(C4)C2)C3)OC1 (centres undefined)")
102
>>> experimental_result("O=C(Nc1ccc(Oc2ccc(Nc3nc4ccccc4s3)cc2)cc1)Nc1ccc(Cl)c(C(F)(F)F)c1")
4.73
>>> experimental_result("COc1cc(CN2CCO[C@H](COc3cccc(F)c3)C2)ccc1Cl")
26.7

Please give the measured growth for this compound: Cn1c(=O)c2c3c(oc2c2ccccc21)C(=O)c1ccccc1C3=O 68.4

I have this compound here, O=[N+]([O-])c1cccc([I+]c2ccccc2)c1 , and I need its recorded growth. 37.6

Look at this compound and give its reported growth. COc1cc(C2Nc3ccccc3S2)cc(CN2CCOCC2)c1O (centres undefined) 50.6

# get_value(readout='growth', item= Oc1c(C(c2ccc(F)cc2)N2CCCCC2)ccc2cncnc12 (centres undefined) ) 6.3

growth for C=CCn1c(SCC(=O)Nc2ccc(/C(C)=N\O)cc2)nnc1-c1cc(-c2ccc(Cl)cc2)nc2ccccc12 ? 14

----------
tested on: A498 renal; assay: NCI-60 one-dose screen, 48 h (100 = growth as untreated, 0 = no growth, -100 = all killed); settings: 10 µM unless noted
This is part of a sample that, as a whole, favours compounds with a hit. Of some 83,000 tested, about 20% had one in any assay.
molecules and their reported growth
State the answer as a number, implicitly in %.

Item Fc1cnccc1-c1nc2ccc3[nH]ncc3c2c2c1CCCC2 with A498 renal - growth? 0.691

Enter reported growth observed with A498 renal for CCCCCCCCCCCCCCCCCC1=NC(C)(C)CN1C(C)(C)CO 78.9

What reported growth corresponds to COc1ccc(/C=C(/C(=O)N2CCN(c3ccccc3)CC2)c2cc(OC)c(OC)c(OC)c2)cc1O on A498 renal? -3.6

# query: growth | item CC[C@H](Nc1nc(N)nc(N)c1Cl)c1nc2cccc(NCc3ccc(C(=O)NO)cc3)c2c(=O)n1-c1ccccc1 | system: A498 renal -12.7

Request: growth, test system A498 renal, entry O=C(C=P(c1ccccc1)(c1ccccc1)c1ccccc1)CCl -35.8

Query growth on A498 renal for NS(=O)(=O)c1ccc(N2N=C(c3cccs3)CC2c2ccccc2O)cc1 (stereo not drawn) -13.2

growth of COc1ccc2[nH]cc(C(c3ccc(Cl)cc3)N3CCCC3)c2c1 (stereo not drawn) on A498 renal? 87

Write down the reported growth of Cc1ccc(NC(=O)c2[nH]c(SCCN(C)C)nc2-c2ccc(F)cc2)cc1C#Cc1cnc2cccnn12 , test system: A498 renal. 102

----------
system: HS 578T breast; experiment: NCI-60 one-dose screen, 48 h (100 = growth as untreated, 0 = no growth, -100 = all killed); settings: 10 µM
The panel holds about 83,000 compounds, 20% with a hit somewhere; the sample as a whole holds those more often.
RECORDED_METRIC: growth (%)
Numeric only. Scale: %

>>> experimental_result("Cc1cc(C)c2c(n1)sc1c(Nc3ccc(OCc4ccccc4)cc3)ncnc12")
108
>>> experimental_result("Fc1ccc(-c2nnc(N3CCOCC3)c3ccccc23)cc1")
114
>>> experimental_result("Nc1ncnc2c1N=C(c1ccc(F)cc1)CC(c1sc(Cl)nc1Cl)N2 (stereo unspecified)")
92.5

Please report the recorded growth for CCN(CC)CCCC(C)Nc1cnc(C(=O)Nc2cccc3ccc(OC)nc23)cn1 (stereo unspecified) . 69.5

Request the reported growth associated with Cc1ccc(NC(=O)c2[nH]c(SCCN(C)C)nc2-c2ccc(F)cc2)cc1Nc1ccc2ncn(C)c(=O)c2c1 60.6

Could you tell me which growth is on file for CN=C1C=C/C(=N/N=c2/ccn(O)cc2C)C=C1C ? 110

Recorded growth for O=C(NO)c1ccc(NCc2csc3ccccc23)cc1 , please? 70.5

Data request, read-out growth, for CCOC(=O)c1sc2nc(-c3cc4ccccc4o3)cc(-c3ccc(Cl)cc3)c2c1N 91.9

State the recorded growth for this entry: COc1cc(C2CC(c3cccc(Nc4ccnc5cc(Cl)ccc45)c3)=NN2c2ccccc2)cc(OC)c1OC (stereo unspecified) 63.6

So what's the measured growth for this one? C=C(C)[C@@H]1CC[C@]2(C)[C@H](CC=C3[C@@H]4C[C@](C)(C(=O)N5CCN(C)CC5)CC[C@]4(C)CC[C@]32C)[C@@]1(C)CCC#N 81.4

Entry COc1cccc2nc(Nc3cccc(NC(=O)c4cc(N5CCOCC5)cc(C(F)(F)F)c4)c3)ccc12 has what growth? 67

Values were extracted from PubChem BioAssay (NCI).
